- Test system: C33A
- method.description: Primary qHTS to identify gynecologic anti-cancer compounds using libraries of approved drugs and bioactive compounds (AID 1345084); note: nearly all actives have a fitted effect of over 55% in size
- condition.info: Gynecologic cancer cell panel viability, ATPlite luminescence, 48 h; series mostly up to 57.5 µM
Inconclusive results are not listed. Active and inactive are the calls of the source. Calls come from the whole dose curve; as a rule, active = well fitted cell-killing curve with a large enough effect; inconclusive = small, poorly fitted or top-dose-only effect, or effect the other way; inactive = flat fitted curve, though single readings scatter.
measured.property: activity change, negative = cytotoxicity

compound: Cc1cc(-c2nncc3c(C(C)(C)C)c(OCc4ncnn4C)nn23)no1
target.system: C33A
measured.property: activity change, negative = cytotoxicity
measured.value: inactive

compound: COc1cc(C2Oc3c(OC)cc(/C=C/C(=O)OC4CC(O)(C(=O)O)CC(O)C4O)cc3C2CO)ccc1O (centres undefined)
target.system: C33A
measured.property: activity change, negative = cytotoxicity
measured.value: inactive

compound: CCC(C)/C=C(C)/C=C/C1=CC2=C(Cl)C(=O)C(C)(OC(C)=O)C(=O)C2=CN1C(CC(=O)O)C(=O)O (centres undefined)
target.system: C33A
measured.property: activity change, negative = cytotoxicity
measured.value: inactive

compound: COC(=O)C1=CO[C@@H](O[C@@H]2O[C@H](CO)[C@@H](O)[C@H](O)[C@H]2O)[C@@H]2[C@@H](C(=O)O)CC[C@H]12
target.system: C33A
measured.property: activity change, negative = cytotoxicity
measured.value: inactive

These measurements were taken from PubChem BioAssay (NCATS).
